Values of IC50 for Tyrosine-protein kinase JAK1 (Homo sapiens, UniProt P23458), collected from a number of published sources:

# MOLECULE, IC50
rows = [
    ("Cc1cc(NC(=O)N2C[C@H]3C[C@H](N(C)c4ncnc5[nH]ccc45)C[C@H]3C2)sn1", "48 nM"),
    ("Cn1cc(-c2cc3nccn3c(-c3cnn(C(CC#N)c4ccc(Cl)cc4)c3)n2)cn1 (stereo not drawn)", "10 to 100 nM"),
    ("CC(C)Oc1ccc2cc1COCCCCNC(=O)c1ccc(c(N)c1)-c1ccnc(n1)N2", "101 to 1000 nM"),
    ("N#CCC1(n2cc(-c3ncnc4[nH]ccc34)cn2)CN(C2CCN(C(=O)Nc3c(Cl)cccc3Cl)CC2)C1", "≤ 5 nM"),
    ("CC#Cc1ccc(C(=O)N2CC3(CC(N(C)c4ncnc5[nH]ccc45)C3)C2)cc1", "≤ 10 nM"),
    ("Cn1cc(-c2cc3nccn3c(-c3cnn(C4(CC#N)CN(S(=O)(=O)C5CCCCC5)C4)c3)n2)cn1", "> 1000 nM"),
    ("O=c1[nH]cccc1Nc1nccc(N[C@H]2CC[C@H](CS(=O)(=O)N3CCCC(O)C3)CC2)n1 (relative stereo)", "> 1000 nM"),
    ("NC(=O)c1cnc(Nc2ccc3c(c2)NC[C@H](O)CO3)nc1NC1CC(F)(F)C1", "10 to 100 nM"),
    ("Cc1csc(-c2cnc3[nH]ccc3c2N[C@H]2C[C@@H](NS(=O)(=O)c3cccc(C#N)c3)C2)n1", "≤ 10 nM"),
    ("COc1cc2ccc1-c1ccnc(n1)Nc1ccc(N3CCOCC3)c(c1)COCCCCNC2=O", "1000 to 10000 nM"),
    ("N#CCC1(n2cc(-c3ncnc4[nH]ccc34)cn2)CN(C2CCN(S(=O)(=O)C3CCCC3)CC2)C1", "≤ 5 nM"),
    ("Cc1cnc2nc1NCCCCCNC(=O)c1ccc(cc1N)-c1cnc(F)c(c1)N2", "101 to 1000 nM"),
]

====

Values of IC50 for Tyrosine-protein kinase JAK1 (Homo sapiens, UniProt P23458), collected from a number of published sources:
MEASURED METRIC: IC50

# COMPOUND, TESTED TARGET, ENDPOINT VALUE
measured = [
    ("O=C1NCCCCOCc2cc(ccc2OC2CCOCC2)Nc2nccc(n2)-c2ccc1cc2[N+](=O)[O-]", "Tyrosine-protein kinase JAK1 (Homo sapiens, UniProt P23458)", "1000 to 10000 nM"),
    ("N#CCC1(n2cc(-c3ccnc4[nH]ccc34)cn2)CN(C2CCN(C(=O)c3nc(C(F)(F)F)cs3)CC2)C1", "Tyrosine-protein kinase JAK1 (Homo sapiens, UniProt P23458)", "5 to 20 nM"),
    ("N#Cc1cn(C(=O)NCCC(F)(F)F)c2c1CCN(c1ncnc3[nH]ccc13)C2", "Tyrosine-protein kinase JAK1 (Homo sapiens, UniProt P23458)", "100 to 500 nM"),
]

====

pIC50: −log10 of the molar value.
Values of pIC50 for Tyrosine-protein kinase JAK1 (Homo sapiens, UniProt P23458), collected from a number of published sources:

# MOLECULE, pIC50
rows = [
    ("CN(c1ncnc2[nH]ccc12)C1CC2(C1)CN(C(=O)CCC#N)C2", "7.00 to 8.00"),
    ("CCS(=O)(=O)N(C)c1ccccc1CNc1nc(-c2cc(F)c(O)cc2CC(F)(F)F)cc2[nH]nc(C(N)=O)c12", 8.11),
    ("CN(c1ncnc2[nH]ccc12)[C@H]1CN(S(=O)(=O)c2cccc(C#N)c2)CC12CC2", 8.24),
    ("N#CCC1(n2cc(-c3c(C#N)cnc4[nH]ccc34)cn2)CN(C2CCN(C(=O)c3ccnc(C(F)(F)F)c3F)CC2)C1", "≥ 8.30"),
    ("CCC(Cn1ccc2cnc(Nc3cnn(CC(=O)OCC(O)CO)c3)nc21)C(C)C (centres unmarked)", "> 7.00"),
    ("Cc1ccc(NC(=O)c2cc(N3CCC(O)C3)cc(C(F)(F)F)c2)cc1-c1ccc2c(c1)[nH]c1ncncc12 (centres unmarked)", "≥ 6.30"),
    ("CC[C@@H](Cn1ccc2cnc(Nc3cnn(C(C)C(=O)O)c3)nc21)C(C)C (some centres unmarked)", "> 7.00"),
    ("Cc1ccc(NC(=O)c2cc(C(F)(F)F)cc(Cl)c2F)cc1-c1ccc2[nH]c3ncncc3c2c1", "≥ 6.30"),
]

====

Values of IC50 for Tyrosine-protein kinase JAK1 (Homo sapiens, UniProt P23458), collected from a number of published sources:

# MOLECULE, IC50
measured = [
    ("Cc1cc2ccc1NC(=O)c1ccc(c(N)c1)-c1ccnc(n1)Nc1ccc(OC3CC3)c(c1)CO2", "0.101 to 1 µM"),
    ("COc1cc(Cl)cc(F)c1COc1ccc2cc1COCCCCNC(=O)c1ccc(c(N)c1)-c1ccnc(n1)N2", "1 to 10 µM"),
    ("Cc1cnc(Nc2ccc3c(c2)CN(C)C3)nc1N1CC(CC#N)(N2CCC3(CC2)CC3)C1", "< 0.02 µM"),
    ("N#CCC1(n2cc(-c3ncnc4[nH]ccc34)cn2)CN(C2CCN(C(=O)c3ccc(-c4ccc5cccnc5c4)c(F)c3)CC2)C1", "≤ 0.005 µM"),
    ("CCOC(=O)Cn1cc(Nc2ncc3ccn(CC4(C)CCCC4)c3n2)cn1", "< 0.1 µM"),
    ("N#CCNc1nc(Nc2ccc3c(c2)NCC(O)CO3)ncc1C(N)=O (centres unmarked)", "0.01 to 0.1 µM"),
    ("CN(c1ncnc2[nH]ccc12)N1CCCC(c2ncc(C(F)(F)F)[nH]2)C1 (centres unmarked)", "0.01 to 0.1 µM"),
    ("NC(=O)c1cnc(Nc2ccc3c(c2)NCC(O)CO3)nc1NC1CC1 (centres unmarked)", "< 0.01 µM"),
]

====

Values of pIC50 for Tyrosine-protein kinase JAK1 (Homo sapiens), collected from a number of published sources:
pIC50: −log10 of the molar value.
MEASURED METRIC: pIC50

# COMPOUND, MEASURED METRIC, ENDPOINT VALUE
measured = [
    ("CCN(CC)Cc1cc(C(=O)N2CCC(N3CC(CC#N)(n4cc(-c5ncnc6[nH]ccc56)cn4)C3)CC2)nc(C(F)(F)F)n1", "pIC50", "≥ 8.30"),
    ("C[C@H](O)Cn1cc(Nc2nc(-c3cnn(C4(CC#N)CN(S(C)(=O)=O)C4)c3)c3sccc3n2)cn1", "pIC50", "> 7.30"),
    ("N#CCC1(n2cc(-c3c(F)cnc4[nH]ccc34)cn2)CN(C2CCN(C(=O)c3ccc(F)c(C#N)c3)CC2)C1", "pIC50", "7.70 to 8.30"),
    ("N#CCC1(n2cc(-c3c(F)cnc4[nH]ccc34)cn2)CN(C2CCN(C(=O)c3ccc(O)c(F)c3)CC2)C1", "pIC50", "≥ 8.30"),
    ("CC1(C)[C@H](Nc2c(C(N)=O)cnn3cc(-c4ccc(N5CCCC5)nc4)cc23)CC[C@]1(C)N", "pIC50", 7.76),
    ("N#CC=C1CC2CCC(C1)N2n1cnc2cnc3[nH]ccc3c21", "pIC50", 8.37),
    ("COc1ccc(-c2cc3nccn3c(-c3cnn(C4(CC#N)CN(S(=O)(=O)C5CC5)C4)c3)n2)cc1", "pIC50", "7.00 to 8.00"),
    ("N#CCC1(n2cc(-c3ncnc4[nH]ccc34)cn2)CN(C2CCN(C(=O)Nc3ccc(Cl)cc3)CC2)C1", "pIC50", "≥ 8.30"),
    ("Cn1ccnc1-c1cnc2[nH]ccc2c1N[C@@H]1CCCN(C(=O)CC#N)C1", "pIC50", "< 6.00"),
    ("CCCNC(=O)NC12CC(n3cnc4cnc5[nH]ccc5c43)(C1)C2", "pIC50", 7.60),
    ("Cc1cnc(Nc2cccnc2)nc1N1CC(CC#N)(N2CCN3CCCC[C@H]3C2)C1", "pIC50", "> 7.30"),
    ("CCC(Cn1ccc2cnc(Nc3cnn(CC(=O)O[C@H](C)CO)c3)nc21)C(C)C (stereo partly drawn)", "pIC50", "> 7.00"),
]

====

Values of IC50 for Tyrosine-protein kinase JAK1 (Homo sapiens, UniProt P23458), collected from a number of published sources:

# MOLECULE, IC50
data = [
    ("CCNC(=O)c1ccc(N2CC(CC#N)(n3cc(-c4ncnc5[nH]ccc45)cn3)C2)cn1", "< 10 nM"),
    ("CCS(=O)(=O)N1CC(CC#N)(n2cc(-c3nc(Nc4ccc5[nH]ncc5c4)nc4ccsc34)cn2)C1", "50 to 500 nM"),
    ("N#CC[C@]1(n2cc(-c3ncnc4[nH]ccc34)cn2)C[C@H](N2CCN(C(=O)c3ccnc(C(F)(F)F)n3)CC2)C1", "< 10 nM"),
    ("Clc1cnc2nc1NCCCc1cccc(c1)OCc1cccc(c1)N2", "122 nM"),
    ("C[C@@H](O)c1nc2cnc3ccsc3c2n1[C@H]1CC[C@H](CNC(=O)N(C)C)CC1", "≤ 100 nM"),
    ("N#CCC(CN1CCN(C(=O)c2ccc(C#N)cc2F)CC1)n1cc(-c2ncnc3[nH]ccc23)cn1 (stereo not shown)", "< 10 nM"),
    ("COCCOC(=O)c1cnc2[nH]ccc2c1N[C@H]1CN(C(=O)CC#N)CC[C@H]1C", "10 to 100 nM"),
]
